Target: DGKα (Homo sapiens)
Construct: His
Experiment: In vitro DGKα inhibition assay (ADP-Glo)
Conditions: His-tagged human recombinant DGKα 0.1 nM, 50 μM ATP, 20 μM DLG, 90 minute incubation
MEASURED_QUANTITY: IC50

| COMPOUND | RESULT |
| --- | --- |
| Cc1nc2c(N3C[C@@H](C)N([C@@H](c4ccc(Cl)cc4)[C@H]4CC4(F)F)C[C@@H]3C)nc3nncn3c2n1C[C@@H]1CCCO1 (single isomer, unassigned) | < 20 nM |
| C[C@@H]1CN(c2nc3nncn3c3c2ncn3C[C@@H]2CCCO2)[C@@H](C)CN1Cc1ccc(C(F)(F)F)cc1 | < 20 nM |
| C[C@@H]1CN(c2nc3nncn3c3c2ncn3C[C@@H]2CCCO2)[C@@H](C)CN1C(c1ccc(Br)cc1)C1CC(F)(F)C1 (stereo partly drawn) | < 20 nM |
| C[C@@H]1CN(c2nc3nncn3c3c2ncn3C[C@@H]2CCCO2)[C@@H](C)CN1C(c1ccc(C(F)F)c(F)c1)C1CC(F)(F)C1 (stereo partly drawn) | < 20 nM |
| CC[C@@H](c1ccc(Cl)cc1)N1C[C@H](C)N(c2nc3nncn3c3c2ncn3C[C@@H]2CCCO2)C[C@H]1C | < 20 nM |

Give IC50 for C[C@@H]1CN(c2nc3nncn3c3c2ncn3C[C@@H]2CCCO2)[C@@H](C)CN1C(c1ccc(Cl)cc1)[C@@H]1CC1(F)F (single isomer, unassigned)
< 20 nM

---

Molecular target: DGKα (Homo sapiens, UniProt P23743)
Construct: His
Sequence (P23743 whole entry): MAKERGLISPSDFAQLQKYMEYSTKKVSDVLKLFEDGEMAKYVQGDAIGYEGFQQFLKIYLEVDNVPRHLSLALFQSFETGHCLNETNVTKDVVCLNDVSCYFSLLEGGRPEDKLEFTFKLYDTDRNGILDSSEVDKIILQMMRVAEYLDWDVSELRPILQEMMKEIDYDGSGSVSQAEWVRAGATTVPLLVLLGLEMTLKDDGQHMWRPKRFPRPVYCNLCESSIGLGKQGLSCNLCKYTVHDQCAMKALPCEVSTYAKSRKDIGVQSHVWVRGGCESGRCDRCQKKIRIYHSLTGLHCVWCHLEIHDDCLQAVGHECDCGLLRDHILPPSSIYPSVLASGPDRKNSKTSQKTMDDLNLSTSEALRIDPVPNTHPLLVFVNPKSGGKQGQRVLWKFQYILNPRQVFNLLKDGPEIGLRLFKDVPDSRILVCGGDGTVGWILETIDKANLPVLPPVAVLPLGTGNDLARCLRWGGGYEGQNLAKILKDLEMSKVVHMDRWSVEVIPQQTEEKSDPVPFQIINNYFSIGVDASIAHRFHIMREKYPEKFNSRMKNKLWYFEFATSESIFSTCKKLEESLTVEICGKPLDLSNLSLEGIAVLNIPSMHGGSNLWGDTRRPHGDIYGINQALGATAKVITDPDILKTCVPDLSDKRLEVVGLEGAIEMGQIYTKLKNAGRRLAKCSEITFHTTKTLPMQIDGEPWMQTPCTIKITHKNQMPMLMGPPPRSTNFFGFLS
Test: In vitro DGKα inhibition assay (ADP-Glo)
Conditions: His-tagged human recombinant DGKα 0.1 nM, 50 μM ATP, 20 μM DLG, 90 minute incubation
pIC50: −log10 of the molar value.
MEASURED_QUANTITY: pIC50

Example compounds with recorded pIC50:
| COMPOUND | pIC50 |
| --- | --- |
| CC[C@@H](c1ccc(C(F)(F)F)cc1)N1C[C@H](C)N(c2nc3nncn3c3c2ncn3C[C@@H]2CCCO2)C[C@H]1C [Example 59] | > 7.70 |
| Cc1nc2c(N3C[C@@H](C)N([C@H](c4ccc(Br)cc4F)C(C)C)C[C@@H]3C)nc3nncn3c2n1C[C@@H]1CCCO1 [Example 26] | > 7.70 |

Proceeding to the next compound to report its pIC50.
Tell me pIC50 reported for C[C@@H]1CN(c2nc3nncn3c3c2ncn3CC2(O)CCCC2)[C@@H](C)CN1C(c1ccc(Cl)cc1)c1ccc(Cl)cc1 [Example 44]
> 7.70

---

Target: DGKζ (Homo sapiens, UniProt Q13574)
Construct: His
Sequence (Q13574 whole entry): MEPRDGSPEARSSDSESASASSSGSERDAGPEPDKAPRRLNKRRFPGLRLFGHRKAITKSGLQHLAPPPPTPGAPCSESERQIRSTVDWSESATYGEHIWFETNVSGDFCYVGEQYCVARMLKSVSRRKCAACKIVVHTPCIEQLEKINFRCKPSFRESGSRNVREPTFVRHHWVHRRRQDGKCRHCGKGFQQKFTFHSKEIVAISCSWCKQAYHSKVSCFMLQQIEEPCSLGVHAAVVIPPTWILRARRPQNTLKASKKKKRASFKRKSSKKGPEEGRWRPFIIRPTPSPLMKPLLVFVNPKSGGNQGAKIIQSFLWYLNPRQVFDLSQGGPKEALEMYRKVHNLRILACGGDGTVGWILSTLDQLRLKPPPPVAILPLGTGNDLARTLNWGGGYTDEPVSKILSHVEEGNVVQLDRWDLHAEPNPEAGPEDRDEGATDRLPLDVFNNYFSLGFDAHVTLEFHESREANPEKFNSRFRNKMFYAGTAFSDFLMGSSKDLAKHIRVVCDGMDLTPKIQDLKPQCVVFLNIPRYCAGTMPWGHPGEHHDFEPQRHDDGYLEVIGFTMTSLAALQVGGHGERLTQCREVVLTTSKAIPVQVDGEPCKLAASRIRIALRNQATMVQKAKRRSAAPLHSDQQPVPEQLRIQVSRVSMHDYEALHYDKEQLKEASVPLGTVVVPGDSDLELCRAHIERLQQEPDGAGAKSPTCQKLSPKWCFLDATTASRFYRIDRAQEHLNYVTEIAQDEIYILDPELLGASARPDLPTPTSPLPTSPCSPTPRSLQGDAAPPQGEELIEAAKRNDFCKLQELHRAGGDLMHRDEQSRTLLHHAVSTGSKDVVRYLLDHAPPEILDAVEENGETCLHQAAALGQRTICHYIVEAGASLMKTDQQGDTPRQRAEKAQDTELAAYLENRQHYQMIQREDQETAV
Experiment: In vitro DGKζ inhibition assay (ADP-Glo)
Settings: His-tagged human recombinant DGKζ 0.4 nM, 30 μM ATP, 20 μM DLG, 90 minute incubation
pIC50: −log10 of the molar value.
MEASURED_QUANTITY: pIC50

Recorded pIC50, per entry:
| COMPOUND | MEASURED_QUANTITY | RESULT |
| --- | --- | --- |
| Cc1nc2c(N3C[C@H]4CC[C@@H](C3)N4C(c3ccc(C(F)(F)F)cc3)C3CC(F)(F)C3)nc3nncn3c2n1C[C@@H]1CCCO1 (stereo partly drawn) | pIC50 | > 7.70 |
| C[C@@H]1CN(c2nc3nncn3c3c2ncn3C[C@@H]2CCCO2)[C@@H](C)CN1Cc1ccc(C(F)(F)F)cc1 | pIC50 | > 7.70 |
| Cc1nc2c(N3C[C@H]4CC[C@@H](C3)N4C(c3ccc(F)cc3)c3ccc(F)cc3)nc3nncn3c2n1C[C@@H]1CCCO1 | pIC50 | > 7.70 |

Annotate the compound Cc1nc2c(N3C[C@@H](C)N(C(c4ccc(C(F)(F)F)cc4F)C4CC(F)(F)C4)C[C@@H]3C)nc3nncn3c2n1C[C@@H]1CCCO1 (stereo partly drawn) with its measured pIC50.
> 7.70

Note pIC50 for the compound shown: C[C@@H]1CN(c2nc3nncn3c3c2ncn3C[C@@H]2CCCO2)[C@@H](C)CN1Cc1ccc(Cl)cc1F
> 7.70

Indicate the recorded pIC50 value for this compound: CC[C@@H]1CN(c2nc3nncn3c3c2nc(C)n3C[C@@H]2CCCO2)[C@@H](C)CN1[C@H](C)c1ccc(C(F)(F)F)cc1
> 7.70

Given Cc1nc2c(N3C[C@@H](C)N(Cc4ccc(Cl)c(F)c4)C[C@@H]3C)nc3nncn3c2n1C[C@@H]1CCCO1 , respond with its pIC50.
> 7.70

Name the recorded pIC50 of the compound listed here: C[C@@H]1CN(c2nc3nncn3c3c2ncn3C[C@@H]2CCCO2)[C@@H](C)CN1C(c1ccc(Cl)cc1)C1CC(F)(F)C1 (stereo partly drawn)
> 7.70

Give me measured pIC50, please, for this compound: CC[C@@H]1CN(c2nc3nncn3c3c2nc(C)n3C[C@@H]2CCCO2)[C@@H](C)CN1Cc1ccc(C(F)(F)F)cc1
> 7.70

Indicate the recorded pIC50 value for this compound: Cc1nc2c(N3C[C@@H](C)N(Cc4c(F)cc(Cl)cc4F)C[C@@H]3C)nc3nncn3c2n1C[C@@H]1CCCO1
> 7.70
